Attribution: ChEMBL document CHEMBL1201862

Molecular target: Heat shock factor protein 1 (Mus musculus)
Sequence (P38532 whole entry): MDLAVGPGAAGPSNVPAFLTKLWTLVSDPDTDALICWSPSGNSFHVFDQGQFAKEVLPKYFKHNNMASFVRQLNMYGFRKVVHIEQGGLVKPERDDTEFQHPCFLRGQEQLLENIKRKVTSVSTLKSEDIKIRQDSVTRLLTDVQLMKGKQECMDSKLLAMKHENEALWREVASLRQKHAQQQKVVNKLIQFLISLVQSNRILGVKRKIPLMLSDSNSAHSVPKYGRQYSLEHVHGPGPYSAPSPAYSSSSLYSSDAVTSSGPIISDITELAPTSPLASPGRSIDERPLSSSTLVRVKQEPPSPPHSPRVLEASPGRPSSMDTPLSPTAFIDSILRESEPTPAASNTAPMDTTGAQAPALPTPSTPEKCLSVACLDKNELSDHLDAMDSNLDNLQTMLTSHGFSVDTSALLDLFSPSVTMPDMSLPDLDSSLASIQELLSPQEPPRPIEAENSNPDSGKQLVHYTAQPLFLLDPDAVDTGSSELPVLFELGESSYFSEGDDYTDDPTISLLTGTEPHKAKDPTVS
Assay: enhancement of HSF1-driven luciferase signal – cell-based, NIH3T3, luminescence, dose retest, confirmation (AID 435004);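 note: stress induced by proteasome inhibitor MG132 added 30 min after compound; luciferase reporter driven by HSF1 response element in NIH3T3 cells; actives raise luminescence as potentiators of the MG132 stress response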
Type: functional
Active and inactive are the calls of the source. Cut-off read from the data, not from the text of the source: actives have a measured EC50 and inactives only a lower limit.
Outcome field: choose from 1.0 for active, 0.0 for inactive

Worked examples follow.
compound: COc1cccc(-n2nnnc2S(C)(=O)=O)c1
discrete-label: 1.0
--
compound: COc1ccc2ccc(O)c(CN3CC=C(c4ccccc4)CC3)c2c1
discrete-label: 1.0
--
compound: COc1ccc(NC(=S)c2ccc(N(C)C)cc2)cc1
discrete-label: 0.0
--
compound: COc1cc(C2Nc3ccc4ncccc4c3C3=C2C(=O)CCC3)cc(OC)c1OC (stereo not drawn)
discrete-label: 1.0
--
compound: CC1CC2(CCCCC2)Nc2ccc3ccccc3c21 (stereo not drawn)
discrete-label: 0.0
--
compound: O=C(C1=C(O)C(=O)N(Cc2cccnc2)C1c1cccc(O)c1)c1ccc2c(c1)OCCO2 (stereo not drawn)
discrete-label: 0.0
--
compound: COc1ccc(/C=C2/SC(=O)N(CCNC(=O)C3COc4ccccc4O3)C2=O)cc1 (stereo not drawn)
discrete-label: 0.0
--
compound: CCN(CC)S(=O)(=O)c1ccc(N2CCOCC2)c(NC(=O)c2cc3ccccc3oc2=O)c1
discrete-label: 0.0
--
compound: CNc1nc(-c2ccccc2)cc(C)c1S(C)(=O)=O
discrete-label: 0.0
--
compound: Cc1oc(-c2ccoc2)nc1CN(CC1CCC(=O)N1)C(C)C (stereo not drawn)
discrete-label: 0.0

Query: recorded result category for NC(=Nc1ccccc1C(F)(F)F)Nc1nc(O)c2c(n1)CCC2 in this test
0.0

Query: recorded result category for O=C(CCl)Nc1cccc(Oc2ccccc2)c1 in this test
0.0

Query: recorded result category for S=C1N=C(c2ccccc2)NCN1c1ccc(Br)cc1 in this test
1.0
